This collection of values is drawn from patent US9353090B2.

I'd be grateful if you could share measured log10 of solubility at 24 h for these entries.
# procedure.details: physchem
# condition.parameters: pH 6.8, aqueous buffer, kinetic from dmso stock, Solubility (pH 6.8)
Scale: decimal log of solubility at 24 h, solubility at 24 h in µg/mL.

## Task Quick one: log10 of solubility at 24 h for CO[C@H]1CN(c2nc(-c3cccc(C)c3OCc3ccc4c(c3)[C@@H](C)CN(C3CCOCC3)CC4)cs2)CC[C@H]1C(=O)O [Compound 312] ?
## Result 2.16

## Task Quick one: log10 of solubility at 24 h for Cc1cccc(-c2cccc(N3CC[C@@]4(C(=O)O)C[C@H]4C3)n2)c1OCc1ccc2c(c1C)CCN(C1CCOCC1)C2 [Compound 14] ?
## Result 1.72

## Task Quick one: log10 of solubility at 24 h for Cc1ccc(OCc2ccc3c(c2C)CCN(CC2COCCO2)CC3)c(-c2csc(N3CC[C@@]4(C(=O)O)C[C@H]4C3)n2)c1 (stereo partly drawn) [Compound 132] ?
## Result 0.49

## Task Quick one: log10 of solubility at 24 h for Cc1ccc(OCc2cc(C)c3c(c2C)CCN(C2COC2)C3)c(-c2csc(N3CC[C@@]4(C(=O)O)C[C@H]4C3)n2)c1 [Compound 126] ?
## Result 0.26

## Task Quick one: log10 of solubility at 24 h for COc1cc(COc2c(C)cccc2-c2csc(N3CC[C@H](C(=O)O)[C@H](OC)C3)n2)cc2c1CN(C1CCOCC1)CC2 [Compound 177] ?
## Result 1.98

## Task Quick one: log10 of solubility at 24 h for CO[C@H]1CN(c2cccc(-c3cc(C)ccc3OCc3ccc4c(c3C)CCN(C3CCOCC3)C4=O)n2)CC[C@H]1C(=O)O [Compound 205] ?
## Result 1.03

## Task Quick one: log10 of solubility at 24 h for CCc1cc(COc2c(C)cccc2-c2cccc(N3C[C@@H]4C[C@]4(C(=O)O)[C@H]3COC)n2)cc2c1CN(CC1COCCO1)CC2 (stereo partly drawn) [Compound 56] ?
## Result 1.94

## Task Quick one: log10 of solubility at 24 h for Cc1cccc(-c2csc(N3C[C@@H]4C[C@]4(C(=O)O)C3)n2)c1OCc1ccc2c(c1C)CCN(C1COC1)C2 [Compound 138] ?
## Result 1.81

## Task Quick one: log10 of solubility at 24 h for Cc1cccc(-c2csc(N3C[C@@H]4C[C@]4(C(=O)O)C3)n2)c1OCc1ccc2c(c1C)CCN(C1CCC1)C2 [Compound 137] ?
## Result 1.71

## Task Quick one: log10 of solubility at 24 h for Cc1ccc(OCc2ccc3c(c2C)CCN(C2CCOC2)CC3)c(-c2csc(N3CC[C@@]4(C(=O)O)C[C@H]4C3)n2)c1 (stereo partly drawn) [Compound 133] ?
## Result 0.20

## Task Quick one: log10 of solubility at 24 h for Cc1ccc(OCc2ccc3c(c2C)CCN(CC2COCCO2)C3)c(-c2csc(N3CC[C@@]4(C(=O)O)C[C@H]4C3)n2)c1 (stereo partly drawn) [Compound 117] ?
## Result 0.53

## Task Quick one: log10 of solubility at 24 h for CO[C@@H]1CN(c2cccc(-c3cccc(C)c3OCc3ccc4c(c3C)CCN(C3CCOCC3)CC4)n2)CC[C@H]1C(=O)O [Compound 297] ?
## Result 1.89

## Task Quick one: log10 of solubility at 24 h for COc1cc(COc2c(C)cccc2-c2cccc(N3C[C@@H]4C[C@]4(C(=O)O)C3)n2)cc2c1CN(C1COC1)CC2 [Compound 28] ?
## Result 1.86

## Task Quick one: log10 of solubility at 24 h for Cc1ccc(OCc2ccc3c(c2C)CCN(C2CCOCC2)CC3)c(-c2csc(N3C[C@@H]4C[C@]4(C(=O)O)C3)n2)c1 [Compound 150] ?
## Result 0.99

## Task Quick one: log10 of solubility at 24 h for COC[C@H]1N(c2cccc(-c3cccc(C(F)(F)F)c3OCc3cc(C)c4c(c3)CCN(C3CCOCC3)C4)n2)C[C@@H]2C[C@@]21C(=O)O [Compound 220] ?
## Result 2.12
